# PROTOCOL_DETAILS: in vitro
# CONDITION_INFO: human
Listed compounds paired with reported CC50 at 48 h
Lab note: write values as number then unit, every time.

Using known records, supply CC50 at 48 h for COC[C@H]1OC(=O)c2coc3c2[C@@]1(C)C1=C(C3=O)[C@@H]2CCC(=O)[C@@]2(C)C[C@H]1OC(C)=O
4690 nM

Note CC50 at 48 h for the compound shown: CO[C@@H]1[C@H](N(C)C(=O)c2ccccc2)C[C@H]2O[C@]1(C)n1c3ccccc3c3c4c(c5c6ccccc6n2c5c31)C(=O)NC4
56 nM

Report CC50 at 48 h for CC(=O)c1c(O)c(C)c(O)c(Cc2c(O)c3c(c(C(=O)/C=C/c4ccccc4)c2O)OC(C)(C)C=C3)c1O
1000 nM
